src = the supplement of paper PMC11451515

Parameter: cell viability. Scope: all listed entries.
Tested on: SEM cells
assay-procedure: cell viability relative to DMSO control; higher = less cytotoxic
experimental-setup: RPMI 5 mM glucose + 10% dialyzed FBS; 48 h; 0.00702 µM
Kindly provide the numeric value in % only, without the unit symbol.

In the examples that follow, each entry is paired with its recorded cell viability.
INSERT INTO measurements (molecule, metric, recorded_result) VALUES
  ('Cc1nc(-c2ccc(-c3ccc(C(=O)N4CCc5cc6c(cc54)C4(CCN(C)CC4)CO6)cc3)c(C)c2)no1', 'cell viability', 103),
  ('CN(C[C@@H]1COCCO1)[S+]([O-])(=O)NC2=CC3=C(C=C2)\C=C/C4=C(C=C(C=N4)C5=C[N](C)N=C5)C3=O', 'cell viability', 91.2),
  ('CCCCCN(C)CCC(O)(P(=O)([O-])O)P(=O)(O)O', 'cell viability', 69),
  ('CCc1nc(N)nc(N)c1-c1ccc(Cl)cc1', 'cell viability', 70.5),
  ('C=C1CCC2[C@](C)(CO)C(O)CC[C@]2(C)C1C/C=C1/C(=O)OCC1O (some centres not stated)', 'cell viability', 121);

Quick one: cell viability for `c1cc2c(cc1[C@H]1OC[C@H]3[C@@H]1CO[C@@H]3c1ccc3c(c1)OCO3)OCO2` ?
144

Reported cell viability, molecule `N#Cc1c(N(CC(=O)[O-])CC(=O)[O-])sc(C(=O)[O-])c1CC(=O)[O-].O.O.O.O.O.O.O.[Sr+2].[Sr+2]` : ____
123

Please look up its cell viability: Clc1ccc(C(c2ccc(Cl)cc2)[n+]2ccn(CC(OCc3ccc(Cl)cc3Cl)c3ccc(Cl)cc3Cl)c2)cc1 (configuration not stated)
118

What value of measured cell viability is listed for `NC[C@H](O)c1ccc(O)c(O)c1` ?
88.5

What does the data say about its cell viability? Entry: `CN(C)CCc1c[nH]c2ccc(Cn3cncn3)cc12`
88.9

Given the entry `COc1cc(N2CCN(C)CC2)ccc1Nc1nc(N)c(C(=O)c2c(Cl)cccc2Cl)s1` , report its measured cell viability.
122

# get_value(readout='cell viability', item= `CC(C)[C@H](O)C(=O)N[C@@H](C)C(=O)N[C@@H]1C(=O)N(C)CCc2ccccc21` )
116

What value of cell viability has been recorded for this entry: `OC1=C(Cl)C=C(N\C2=C(\C(=O)NC2=O)C3=C(C=CC=C3)[N+]([O-])=O)C=C1`
98.2

Need cell viability of `CCC(=O)O[C@@]1(CC[C@H]2[C@@H]3CCC/4=C/C(=O)CC[C@]4(C)[C@H]3CC[C@]12C)C(=O)CO` , thanks.
99.9

Which cell viability value belongs to `CCOC(=O)c1c(CSc2ccccc2)n(C)c2cc(Br)c(O)c(CN(C)C)c12` ?
101

# cell viability lookup, item `Cc1nnc(C(C)C)n1[C@@H]1C[C@H]2CC[C@@H](C1)N2CC[C@H](NC(=O)C1CCC(F)(F)CC1)c1ccccc1`
101

Form field: reported cell viability of `C/C1=C/C(=C(/CNC(=O)C2=CC(=CC3=C2C=N[N]3C4CCCC4)C5=CC=C(CN6CCOCC6)C=C5)C(=O)N1)C`
132
